Measured solubility values are reported for all entries that follow.
Assay: Solubility at room temperature, manual dilution combined with visual observation
Type: physicochemical
Settings: heptane; room temperature; read-out: Solubility
Where a SMILES comes first, the peptide text is derived from it. The star is where a group is joined. Palmitoyl = CCCCCCCCCCCCCCCC(=O)*

{"MOLECULE": "CCCCCCCCCCCCCCCC(=O)N1CCC[C@H]1C(=O)N1CCC[C@H]1C(=O)NCC(=O)N[C@@H](Cc1ccc(O)cc1)C(=O)[O-].[Na+] [Compound I] (Palmitoyl-PPGY-OH)", "solubility": "< 1000 µg/mL"}

Query solubility for CCCCCCCCCCCCCCCC(=O)N1CCC[C@H]1C(=O)N1CCC[C@H]1C(=O)NCC(=O)N[C@@H](Cc1ccc(O)cc1)C(=O)O [Compound II] (Palmitoyl-PPGY-OH) < 1000 µg/mL

The values you see were collected from patent US20220273619A1.
